- Test system: HT-29
- protocol_details: NCI tumour cell line growth inhibition, 48 h
The source made the active and inactive calls. Cut-off read from the data, not from the text of the source: active = GI50 up to about 1.1 µM and inactive = higher.
// classify into active, inactive

Sample answers from the record:
| compound | assigned_category |
| --- | --- |
| Cc1ccc2cc3cccc(C(=O)NCCN(C)C)c3nc2c1 | active |
| COC(=N)C1(C#N)NC(c2ccsc2)C(C#N)(C#N)NC1c1ccsc1 (centres undefined) | inactive |
| Cc1ccc(S(=O)(=O)N/N=C2\CCC3(O)CC2(C)CCC2C3CC2(C)C)cc1 (centres undefined) | inactive |
| COc1cc(C2c3cc4c(cc3[C@H](OCCN(C)C)[C@@H]3COC(=O)C23)OCO4)cc(OC)c1O (some centres undefined) | active |
| COC(=O)c1cc(NC2OCC(OC(C)=O)C(OC(C)=O)C2OC(C)=O)nc(SC)c1C(=O)OC (centres undefined) | inactive |
| C/C(=C\COP(=O)(O)OP(=O)(O)O)CCCCCCOCc1ccccc1 | inactive |

Query :: Which outcome did this test record for the compound COc1ccc(-c2c(C(C)=O)c(-c3ccccc3)n(C3OC(CO)C(O)C(O)C3O)c(=S)c2C#N)cc1 (centres undefined) ?
Result :: inactive

Query :: Entry CN1CC[C@@]2(c3cccc(O)c3)CC(=O)/C(=C/c3ccc(Cl)c(Cl)c3)[C@H]1C2 : call = ?
Result :: inactive

Query :: Assay outcome for Cc1cc2c(cc1-c1cc3c(cc1C)C(C(C)C)=C(O)C(=O)/C3=C\Nc1c(C)n(C)n(-c3ccccc3)c1=O)/C(=C/Nc1c(C)n(C)n(-c3ccccc3)c1=O)C(=O)C(O)=C2C(C)C : what was it?
Result :: inactive

---

- System: SF-539
- protocol_details: NCI tumour cell line growth inhibition, 48 h
Active and inactive are the calls of the source. Cut-off read from the data, not from the text of the source: active = GI50 up to about 1.1 µM and inactive = higher.
measured_attribute: GI50

Illustrative cases are given below, each with its answer.
| compound | GI50 |
| --- | --- |
| Cc1cc(C(C)(C)C)c(OCCCN2CCOCC2)c(C(C)(C)C)c1 | 18.7 µM (inactive) |
| CC1OC(OC2C(O[C@H]3CC[C@@]4(C)C(=CC[C@H]5[C@@H]6C[C@@H]7O[C@]8(CC[C@@H](C)CO8)[C@@H](C)[C@@H]7[C@@]6(C)CC[C@@H]54)C3)OC(CO)C(O)C2O)C(O)C(O)C1O (stereo not given in full) | 1.21 µM (inactive) |
| Cc1cc(C)cc(Sc2c([N+](=O)[O-])ncn2C)c1 | 6.03 µM (inactive) |

Value sought for every listed compound: GI50.
1. CC1(CO)OC(n2cc(C(=O)NC(=O)OCc3ccccc3)c(=O)[nH]c2=O)CC1O (stereo not given)
2. Nc1nc(N)c(-c2ccccc2)c(C(=O)Nc2ccccc2)n1

Result ::
> 100 µM (inactive)
> 100 µM (inactive)

---

- Tested on: MOLT-4
- protocol_details: NCI tumour cell line growth inhibition, 48 h
Calls of active or inactive are those of the source. Rule as the data show it: active = GI50 up to about 1.1 µM and inactive = higher.
measured_attribute: GI50

As a guide, the following entries are already answered.
| compound | result |
| --- | --- |
| CC(=O)Nc1cc([As](=O)(O)O)ccc1O [ACETARSONE] | > 100 µM (inactive) |
| O=C(O)/C(Cc1ccnc2ccccc12)=N\O | > 100 µM (inactive) |

Hello, I would appreciate it if you could give GI50 for each entry below.
1. COc1ccc2c(c1)CCc1c-2n(CCN2CCOCC2)c2ccc(OC)cc12
2. O=C1CC(c2cccc(Cl)c2)n2cccc21 (centres undefined)
3. N#Cc1c(N)c2c(c(-c3ccccc3)c1-c1ccccc1)C(=O)N(Nc1ccccc1)C2=O

Result ::
["12.5 µM (inactive)", "70 µM (inactive)", "27.4 µM (inactive)"]

Batch of 4 compounds: report GI50 for each.
1. C/C(=C\COP(=O)(O)OP(=O)(O)O)CCCCCCOCc1ccccc1
2. NC(CCCCCCCCCCP(=O)(O)O)C(=O)O (centres undefined)
3. CC(=O)O[C@H]1C(=O)[C@@]2(C)C([C@H](OC(=O)c3ccccc3)[C@]3(O)C[C@H](OC(=O)[C@H](O)[C@@H](NC(=O)c4ccc(Cl)cc4)c4ccccc4)C(C)=C1C3(C)C)C1(OC(C)=O)CO[C@@H]1C[C@@H]2O (some centres undefined)
4. Nc1ccc(C(=O)NN2C(=O)C(Cl)C2c2cc(Br)cc(Br)c2O)cc1 (centres undefined)

Result ::
["> 100 µM (inactive)", "> 100 µM (inactive)", "21.3 µM (inactive)", "4.89 µM (inactive)"]
